Test system: MT-2 human T-cells
Assay: Cytotoxicity: inhibition of MT-2 cell growth
Type: cell-based
Settings: Table 2b; MT-2 cells
Readout kind: CC50 (µM)

Compound	Readout kind	Result number
COc1ccnc(Nc2ccc(Cl)c(Oc3ccccc3C)c2)n1 [Compound 11e]	CC50	13
COc1ccnc(Nc2ccc(Cl)c(Oc3ccccc3)c2)n1 [Compound 11d]	CC50	38
C/C=C/COc1cc(Nc2ncccn2)ccc1Cl [Compound 11a]	CC50	31
C/C=C/COc1cc(Nc2nccc(OC)n2)ccc1Cl [Compound 11c]	CC50	17
Clc1ccc(Nc2ncccn2)cc1Oc1ccccc1 [Compound 11b]	CC50	30

====

System: IIIB strain of HIV-1
Assay: Anti-HIV-1 activity: protection of infected MT-2 cells, MTT colorimetric method
Format: cell-based
Details: Human immunodeficiency virus 1, IIIB; text b104; read-out: anti-HIV activities in our assay
Readout kind: EC50

Molecule	Result
Cc1cn([C@H]2C=C[C@@H](CO)O2)c(=O)[nH]c1=O [d4T, Stavudine, reference compound]	3000 nM

====

Collected pIC50 values appear next to each entry.
Tested on: MT-2 human T-cells
Test: Cytotoxicity: inhibition of MT-2 cell growth
Format: cell-based
Settings: Homo sapiens, MT2, Table 1a; cytotoxicity, MT-2 cells; read-out: IC50
pIC50: −log10 of the molar value.

Compound	Prefix operator	pIC50
CC(C)=CCOc1cc(Nc2nccc(N)n2)ccc1C [Compound 40b]	=	5.19
CC(C)=CCOc1cc(Nc2ccccn2)ccc1C#N [Compound 30h]	=	6.54
CC(C)=CCOc1cc(Nc2ccccn2)ccc1Cl [Compound 30d]	=	4.82
CC(C)=CCOc1cc(Nc2ccnc(N)n2)ccc1C [Compound 45b]	=	6.22
CC(C)=CCOc1cc(Nc2nccc(C)n2)ccc1Cl [Compound 41d]	>	6.70

====

Tested on: MT-2 human T-cells
Test: Cytotoxicity: inhibition of MT-2 cell growth
Assay type: cell-based
Settings: Homo sapiens, MT2, Table 3; cytotoxicity, MT-2 cells; read-out: IC50
Consider the following molecules and their measured IC50 readings.

Molecule	IC50
Clc1ccc(Nc2nccs2)cc1OCC1CCCCC1 [Compound 22d]	12 µM
CC1=C(COc2cc(Nc3nccs3)ccc2Cl)CCC1 [Compound 21d]	2.5 µM
CCCCCCCOc1cc(Nc2nccs2)ccc1Cl [Compound 23d]	15 µM
CC(C)=CC(C)Oc1cc(Nc2nccs2)ccc1Cl (centres unmarked) [Compound 19d]	22 µM
N#Cc1ccc(Nc2nccs2)cc1OC1=CCCC1 [Compound 20h]	1.7 µM

====

Test system: MT-2 human T-cells
Assay: Cytotoxicity: inhibition of MT-2 cell growth
Format: cell-based
Settings: Homo sapiens, MT2
pIC50: −log10 of the molar value.

Compound	System name	pIC50
COc1ccc(Nc2nc(C)cs2)cc1OCC=C(C)C [Compound 8c]	MT-2 human T-cells	4.74
CCOC(=O)c1csc(Nc2ccc(C)c(OCC=C(C)C)c2)n1 [Compound 9b]	MT-2 human T-cells	4.96
CC(C)=CCOc1cc(Nc2nc(C)cs2)ccc1C [Compound 8b]	MT-2 human T-cells	4.82
CC(C)=CCOc1cccc(Nc2nc(C)cs2)c1 [Compound 8a]	MT-2 human T-cells	4.59
COc1ccc(Nc2nc(CO)cs2)cc1OCC=C(C)C [Compound 10c]	MT-2 human T-cells	4.10
CC(C)=CCOc1cc(Nc2nc(CO)cs2)ccc1C [Compound 10b]	MT-2 human T-cells	4.64
CCOC(=O)c1csc(Nc2ccc(OC)c(OCC=C(C)C)c2)n1 [Compound 9c]	MT-2 human T-cells	4.82
CCOC(=O)c1csc(Nc2cccc(OCC=C(C)C)c2)n1 [Compound 9a]	MT-2 human T-cells	4.68

====

Tested on: IIIB strain of HIV-1
Assay: Anti-HIV-1 activity: protection of infected MT-2 cells, MTT colorimetric method
Format: cell-based
Conditions: Human immunodeficiency virus 1, IIIB, MT2; Table 1a, heteroaryl derivatives; N/A read as no activity; read-out: EC50
Below, each entry is listed with its recorded EC50.

Compound	EC50, nM
CC(C)=CCOc1cc(Nc2ncccn2)ccc1Cl [Compound 39d]	200
Cc1nccc(C(F)(F)F)n1	65
COc1ccnc(Nc2ccc(C)c(OCC=C(C)C)c2)n1 [Compound 42b]	320
CC(C)=CCOc1cc(Nc2nccc(N)n2)ccc1Cl [Compound 40d]	75
CC(C)=CCOc1cc(Nc2ncccn2)ccc1C [Compound 39b]	2800
CC(C)=CCOc1cc(Nc2nccc(N)n2)ccc1C [Compound 40b]	350
COc1ccnc(Nc2ccc(Cl)c(OCC=C(C)C)c2)n1 [Compound 42d]	10

====

Test: Cytotoxicity: inhibition of MT-2 cell growth
Format: cell-based, human
Settings: human, MT-2 T-cells; Table 2b; MT-2 cells
Readout kind: CC50 (nM)

Compound	Result number
CC(C)=CCOc1cc(Nc2ncccn2)ccc1Cl [Compound 39d]	2500

====

Tested on: IIIB strain of HIV-1
Assay: Anti-HIV-1 activity: protection of infected MT-2 cells, MTT colorimetric method
Assay type: cell-based
Settings: Table 3, thiazoles 18-23; N/A read as no activity; read-out: EC50
Let's look at some molecules and their measured EC50.

Molecule	EC50 / µM
CCC(C)=CCOc1cc(Nc2nccs2)ccc1CC (mixture of isomers) [Compound 18e]	10
CCC(C)=CCOc1cc(Nc2nccs2)ccc1C (mixture of isomers) [Compound 18b]	8
CC/C(C)=C\COc1cc(Nc2nccs2)ccc1Cl [Compound 18d]	1

====

Test system: IIIB strain of HIV-1
Test: Anti-HIV-1 activity: protection of infected MT-2 cells, MTT colorimetric method
Type: cell-based
Details: Table of bicyclic-heteroaryl phenyl amines; MT-2 cell assays; read-out: EC50
Readout kind: EC50 (µM)

Compound	System name	Readout kind	Result number
CC(C)=CCOc1cc(Nc2nccc3ccoc23)ccc1C#N [furopyridine 56b]	IIIB strain of HIV-1	EC50	0.011
CC(C)=CCOc1cc(Nc2nccc3ccccc23)ccc1Cl [isoquinoline 62a]	IIIB strain of HIV-1	EC50	0.034
CC(C)=CCOc1cc(Nc2nccc3ccoc23)ccc1Cl [furopyridine 56a]	IIIB strain of HIV-1	EC50	0.08
CC(C)=CCOc1cc(Nc2nccc3ccccc23)ccc1C#N [isoquinoline 62b]	IIIB strain of HIV-1	EC50	0.003

====

# reported pEC50; entries follow
System: IIIB strain of HIV-1
Assay: Anti-HIV-1 activity: protection of infected MT-2 cells, MTT colorimetric method
Assay type: cell-based
Conditions: Human immunodeficiency virus 1, IIIB, MT2; Table of bicyclic-heteroaryl phenyl amines; MT-2 cell assays; read-out: EC50
pEC50: −log10 of the molar value.
Readout kind: pEC50

Smiles	Result number
CC(C)=CCOc1cc(Nc2nccn3cccc23)ccc1Cl	7.72
CC(C)=CCOc1cc(Nc2nccc3cccn23)ccc1Cl	6.89
CC(C)=CCOc1cc(Nc2nccc3cc[nH]c23)ccc1Cl	6.05
CC(C)=CCOc1cc(Nc2nccc3occc23)ccc1Cl	8.22
CC(C)=CCOc1cc(Nc2ncc3ccoc3n2)ccc1Cl	6.89

====

Tested on: MT-2 human T-cells
Experiment: Cytotoxicity: inhibition of MT-2 cell growth
Assay type: cell-based
Conditions: Table 1B; for 50% inhibition of MT-2 cell growth; triplicate samples
Threshold-based label: CC50 under 0.7 µM gives t, CC50 not under 0.7 µM gives f.

Compound	System name	Class name
CSc1ccnc(Nc2ccc(Cl)c(OCC=C(C)C)c2)n1	MT-2 human T-cells	f
COc1nc(N)nc(Nc2ccc(C#N)c(OCC=C(C)C)c2)n1	MT-2 human T-cells	t
COc1cc(N)nc(Nc2ccc(Cl)c(OCC=C(C)C)c2)n1	MT-2 human T-cells	f
COCc1ccnc(Nc2ccc(Cl)c(OCC=C(C)C)c2)n1	MT-2 human T-cells	f
Cc1ccnc2c1NC(=O)c1cccnc1N2C1CC1 [Nevirapine, nevirapine, reference compound]	MT-2 human T-cells	f
COc1ncnc(Nc2ccc(Cl)c(OCC=C(C)C)c2)n1	MT-2 human T-cells	f
CC(C)=CCOc1cc(Nc2nccc(C)n2)ccc1Cl [Compound 41d]	MT-2 human T-cells	t
COc1cc(OC)nc(Nc2ccc(C#N)c(OCC=C(C)C)c2)n1 [Compound 10h]	MT-2 human T-cells	f
COc1nc(Nc2ccc(C#N)c(OCC=C(C)C)c2)nc(OC)n1	MT-2 human T-cells	f
COc1nc(Cl)nc(Nc2ccc(Cl)c(OCC=C(C)C)c2)n1	MT-2 human T-cells	f
COc1nc(C)nc(Nc2ccc(Cl)c(OCC=C(C)C)c2)n1	MT-2 human T-cells	f
CC(C)=CCOc1cc(Nc2nccc(CO)n2)ccc1Cl	MT-2 human T-cells	t
COc1cc(OC)nc(Nc2ccc(Cl)c(OCC=C(C)C)c2)n1	MT-2 human T-cells	f
CSc1ncnc(Nc2ccc(C#N)c(OCC=C(C)C)c2)n1	MT-2 human T-cells	f
CC(C)=CCOc1cc(Nc2ncccn2)ccc1C#N [Compound 39h]	MT-2 human T-cells	t
CC(C)=CCOc1cc(Nc2nc(C)nc(Cl)n2)ccc1Cl	MT-2 human T-cells	f
CNc1ncnc(Nc2ccc(Cl)c(OCC=C(C)C)c2)n1	MT-2 human T-cells	f
CCOc1ccnc(Nc2ccc(Cl)c(OCC=C(C)C)c2)n1	MT-2 human T-cells	f
CC(C)=CCOc1cc(Nc2ncnc(N)n2)ccc1Cl	MT-2 human T-cells	f
CC(C)=CCOc1cc(Nc2ncnc(Cl)n2)ccc1Cl	MT-2 human T-cells	f
COc1nc(Nc2ccc(Cl)c(OCC=C(C)C)c2)nc(OC)n1	MT-2 human T-cells	f
Cc1cc(C#N)cc(C)c1Oc1nc(Nc2ccc(C#N)cc2)nc(N)c1Br [TMC125, etravirine, reference compound]	MT-2 human T-cells	f
CNc1ccnc(Nc2ccc(C#N)c(OCC=C(C)C)c2)n1 [Compound 10d]	MT-2 human T-cells	t
CCc1ccnc(Nc2ccc(Cl)c(OCC=C(C)C)c2)n1	MT-2 human T-cells	t
